Experiment: viability loss of HPDE-C7K cells – cell-based, fluorescence, HTS, primary screen (AID 431);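 further: 0% = DMSO solvent wells and 100% = doxorubicin-treated wells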
Details: HPDE-C7K KRASV12 cells, Alamar Blue viability, 48 h; at 10 µM; hits give high values
About 1,100 (1.7%) of roughly 63,000 compounds were called active. The sample as a whole holds a higher share of actives than the screen did. Entries with a potency or affinity are not part of this list.
testReadout: cytotoxicity (%)

[[record]]
compound = "COc1ccc(CN(Cc2ccccn2)C(=O)CN2C(=O)COc3ccccc32)cc1"
endpointunit = "%"
reportedvalue = -15.4

[[record]]
compound = "CCN(CC)C(=O)CSc1ncnc2c1nnn2-c1ccc(OC)cc1"
endpointunit = "%"
reportedvalue = -10.4

[[record]]
compound = "CCOc1cc(N2CCOCC2)c(OCC)cc1NC(=O)CN1CCc2ccccc2C1"
endpointunit = "%"
reportedvalue = 9.3

[[record]]
compound = "Clc1ccc2nc(NC3=NCN(CCN4CCOCC4)CN3)nc(-c3ccccc3)c2c1"
endpointunit = "%"
reportedvalue = 8.5

[[record]]
compound = "O=C(Oc1c(Cl)cc(Cl)c2cccnc12)N1CCOCC1"
endpointunit = "%"
reportedvalue = -2.4

[[record]]
compound = "N#Cc1ccc(CSc2nnc(-c3ccccn3)n2-c2ccccc2)cc1"
endpointunit = "%"
reportedvalue = 10.8

[[record]]
compound = "CCCNc1nc2c(c(=O)[nH]c(=O)n2C)n1CCC(C)C"
endpointunit = "%"
reportedvalue = 9

[[record]]
compound = "O=C(NCCCNC(=O)c1ccccn1)c1ccccn1"
endpointunit = "%"
reportedvalue = 9.7

[[record]]
compound = "c1ccc(N(c2ccccc2)c2nc(N3CCCC3)nc(-n3ccnc3)n2)cc1"
endpointunit = "%"
reportedvalue = 1.4

[[record]]
compound = "CCOc1cc(N2CCOCC2)c(OCC)cc1NC(=O)Cc1ccc(OC)c(OC)c1"
endpointunit = "%"
reportedvalue = -1.4

[[record]]
compound = "CS(=O)(=O)N1CCC(NC(=O)Cc2ccccc2)CC1"
endpointunit = "%"
reportedvalue = -2.1

[[record]]
compound = "N=c1n(Cc2ccccc2)c2ccccc2n1CC(O)COc1ccccc1 (stereo not given)"
endpointunit = "%"
reportedvalue = 53

[[record]]
compound = "O=C1c2oc3ccc(F)cc3c(=O)c2C(c2ccncc2)N1CCN1CCOCC1 (stereo not given)"
endpointunit = "%"
reportedvalue = -11.5

[[record]]
compound = "CCCOC(=O)CCCCC1SCC(NC(=O)OC)C1NC(=O)OC (stereo not given)"
endpointunit = "%"
reportedvalue = 5.4

[[record]]
compound = "COC(=O)c1cc(N2C(=O)C3C(C2=O)C2(C)C=CC3(C)O2)ccc1Cl (stereo not given)"
endpointunit = "%"
reportedvalue = 8

[[record]]
compound = "Cn1c(=O)[nH]c(=O)c2c1nc(CN1CCN(c3cccc(Cl)c3)CC1)n2CCCc1ccccc1"
endpointunit = "%"
reportedvalue = 6

[[record]]
compound = "COc1ccc(NC(=O)N2CCCC(c3nc(-c4ccc(C(C)C)cc4)no3)C2)cc1 (stereo not given)"
endpointunit = "%"
reportedvalue = 65.6

[[record]]
compound = "COCCSc1nnc(-c2cccc(C#N)c2)n1C"
endpointunit = "%"
reportedvalue = -2.9

[[record]]
compound = "c1ccc2c(c1)CCN2CCN1CCc2ccccc21"
endpointunit = "%"
reportedvalue = 1.1

[[record]]
compound = "CCCn1c(=N)n(CC(O)COc2cccc(C)c2)c2ccccc21 (stereo not given)"
endpointunit = "%"
reportedvalue = 12.4

[[record]]
compound = "Oc1c(CN2CCOCC2)cc(COCc2ccccc2)c2cccnc12"
endpointunit = "%"
reportedvalue = 30.7

[[record]]
compound = "Cc1ccc(C)c(NC(=O)c2nnn(Cc3ccccc3C)c2N)c1"
endpointunit = "%"
reportedvalue = -4.9

[[record]]
compound = "Cc1ccc(OCCN2CCN(C(=O)CCC(=O)Nc3nnc(C(C)C)s3)CC2)cc1"
endpointunit = "%"
reportedvalue = 14.3

[[record]]
compound = "O=C1CN(C(=O)c2cccs2)c2ccccc2N1"
endpointunit = "%"
reportedvalue = -12.5

[[record]]
compound = "COc1cc(C(=O)Oc2c(CN3CCOCC3)cc(Cl)c3cccnc23)cc(OC)c1OC"
endpointunit = "%"
reportedvalue = 18.4

[[record]]
compound = "COc1ccc(C(=O)Oc2c(CN3CCOCC3)cc(Cl)c3cccnc23)cc1OC"
endpointunit = "%"
reportedvalue = 13.7

[[record]]
compound = "COc1cc(C2Nc3cccc4cccc(c34)N2)ccc1OC(C)=O"
endpointunit = "%"
reportedvalue = 50.8

[[record]]
compound = "Cc1cc(C)cc(NC(=O)c2nnn(Cc3cc(C)ccc3C)c2N)c1"
endpointunit = "%"
reportedvalue = 54.9

[[record]]
compound = "COc1ccc(C)cc1NC(=O)c1nnn(Cc2cc(C)ccc2C)c1N"
endpointunit = "%"
reportedvalue = -4

[[record]]
compound = "Cc1ccc(Nc2nc(N)nc(CN3CCN(Cc4ccc5c(c4)OCO5)CC3)n2)c(C)c1"
endpointunit = "%"
reportedvalue = -5.2

[[record]]
compound = "COc1cc(C2Nc3cccc4cccc(c34)N2)cc(OC)c1OC(C)=O"
endpointunit = "%"
reportedvalue = 83.6

[[record]]
compound = "CCn1c(=N)n(CC(O)COc2cccc(C)c2)c2ccccc21 (stereo not given)"
endpointunit = "%"
reportedvalue = 23.6

[[record]]
compound = "Cc1[nH]n2c(=O)cc(C(C)(C)C)nc2c1-c1ccccc1"
endpointunit = "%"
reportedvalue = 81.8

[[record]]
compound = "Cc1ccccc1C(=O)N1CCC(C(=O)Nc2cccc(F)c2)CC1"
endpointunit = "%"
reportedvalue = 3

[[record]]
compound = "Oc1ccccc1C1Nc2cccc3cccc(c23)N1"
endpointunit = "%"
reportedvalue = -2.4

[[record]]
compound = "COc1cc(C(=O)O)ccc1OC(C)=O"
endpointunit = "%"
reportedvalue = -2.6

[[record]]
compound = "OCCN1CCN(c2nc(-c3ccccc3)c3cc(Cl)ccc3n2)CC1"
endpointunit = "%"
reportedvalue = 130

[[record]]
compound = "CCOC(=O)N1CCN(C(=O)CCc2nc3sc4c(c3c(=O)[nH]2)CCCC4)CC1"
endpointunit = "%"
reportedvalue = 4.1

[[record]]
compound = "COc1ccc(CCNC(=O)c2cnn3cccnc23)cc1OC"
endpointunit = "%"
reportedvalue = -0.5

[[record]]
compound = "COc1cc(C2N(c3ccccc3)CCN2c2ccccc2)ccc1OC(C)=O"
endpointunit = "%"
reportedvalue = -13.9

[[record]]
compound = "Cn1c(=O)c2c(nc(CN3CCN(C(=O)c4ccco4)CC3)n2CCc2ccccc2)n(C)c1=O"
endpointunit = "%"
reportedvalue = -4.3

[[record]]
compound = "Cc1[nH]n2c(=O)cc(C(C)C)nc2c1-c1ccccc1"
endpointunit = "%"
reportedvalue = 28.7

[[record]]
compound = "COc1ccc(OCC(O)Cn2c(=N)n(Cc3ccccc3)c3ccccc32)cc1 (stereo not given)"
endpointunit = "%"
reportedvalue = 22.1

[[record]]
compound = "CCOc1cc(N2CCOCC2)c(OCC)cc1NC(=O)COc1cccc2cccnc12"
endpointunit = "%"
reportedvalue = 51

[[record]]
compound = "CCn1c(SCC(=O)Nc2ccc(S(=O)(=O)Nc3ccccn3)cc2)nnc1-c1ccncc1"
endpointunit = "%"
reportedvalue = -0.6


* * *

Test: viability loss of HPDE-C7K cells – cell-based, fluorescence, HTS, primary screen (AID 431);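 further: 0% = DMSO solvent wells and 100% = doxorubicin-treated wells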
Conditions: HPDE-C7K KRASV12 cells, Alamar Blue viability, 48 h; at 10 µM; hits give high values
The campaign covered roughly 63,000 compounds. About 1,100 (1.7%) were called active. The sample holds actives, similar compounds and a random draw of the others, so the mix is not that of the screen. Measured potencies and affinities stand elsewhere.
testReadout: cytotoxicity (%)

[[record]]
compound = "COc1cc(OC)cc(-c2nnc(SCC(=O)N3c4ccccc4Sc4ccccc43)o2)c1"
reportedvalue = -24.8

[[record]]
compound = "COC(=O)c1cccc(NC(=O)CSc2nnc(COc3ccccc3)n2C)c1"
reportedvalue = 8.3

[[record]]
compound = "COc1ccccc1NC(=O)N(Cc1ccco1)Cc1cc2cccc(C)c2[nH]c1=O"
reportedvalue = -5

[[record]]
compound = "COc1ccccc1NC(=O)N(Cc1ccco1)Cc1cc2ccc(C)c(C)c2[nH]c1=O"
reportedvalue = 63.7

[[record]]
compound = "COc1cccc(C2=NOC(C(=O)NC(C)(C)C)C2)c1 (stereo not given)"
reportedvalue = 0.2

[[record]]
compound = "COc1ccccc1NC(=O)N(Cc1ccco1)Cc1cc2cc(C)cc(C)c2[nH]c1=O"
reportedvalue = 74.7

[[record]]
compound = "c1ccc(Cn2c(SCc3nc4ccccc4s3)nnc2-c2ccco2)cc1"
reportedvalue = 8.5

[[record]]
compound = "Cc1cc(C)c2[nH]c(=O)c(CN(Cc3ccco3)C(=O)C3CCCO3)cc2c1 (stereo not given)"
reportedvalue = -35.5

[[record]]
compound = "COc1cccc(C2=NOC(C(=O)NC(C)C)C2)c1 (stereo not given)"
reportedvalue = -9.8

[[record]]
compound = "Cc1cc2cc(CN(Cc3ccc4c(c3)OCO4)C(=O)c3ccco3)c(=O)[nH]c2cc1C"
reportedvalue = 22.5

